# TEST_DESCRIPTION: qHTS for identification of novel therapeutic agents for treatment of microphthalmiaassociated transcription factor (MiT) renal cell carcinoma (RCC) (AID 1963991);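 note: curves scaled with 100% = DMSO viability and 0% = empty wells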
# TEST_CONTEXT: TFE3-RCC UOK109 viability, CellTiter-Glo, 48 h; measured here: UOK109 Z-AUC; stronger effect = lower value
Results filed as inconclusive are left out.
Classify: yes (1) when z-score is strictly less than 0.6; no (0) when z-score is not.

COMPOUND | CAT
CSCC[C@@H](NC(=O)[C@@H](Cc1ccccc1)NC(=O)CNC(=O)CNC(=O)[C@@H](N)Cc1ccc(O)cc1)C(=O)O | yes (1)
CC(N[C@H]1C[C@H]1c1ccccc1)c1ccc2c(c1)OCCO2 (some centres undefined) | yes (1)

Task: A record lists C#C[C@]1(O)C=C[C@@H]2[C@@H]3CCC4=CC(=O)CC[C@@H]4[C@H]3CC[C@@]21CC . Is its z-score below 0.6?
Result: no (0)

Task: A record lists O=C(Nc1ccncc1)C(=O)c1cn(Cc2ccc(Cl)cc2)c2ccccc12 . Is its z-score below 0.6?
Result: yes (1)

Task: A record lists c1ccc2c(CN3CCNCC3)cccc2c1 . Is its z-score below 0.6?
Result: yes (1)

Task: A record lists CC[C@@H]1[C@@H](C)O[C@@](O)([C@@H](C)[C@H](O)[C@H](C)[C@H]2OC(=O)C=CC=C[C@@H](C)[C@@H]([C@@H](C)[C@@H](O)[C@H](C)[C@@]3(O)C[C@H](O[C@H]4C[C@H](O)[C@H](O)[C@H](C)O4)[C@H](CC)[C@@H](C)O3)OC(=O)C=CC=C[C@@H]2C)C[C@H]1O[C@H]1C[C@H](O)[C@H](O)[C@H](C)O1 . Is its z-score below 0.6?
Result: yes (1)

Task: A record lists CC(C)(O)C=CC(=O)[C@](C)(O)[C@H]1[C@H](O)C[C@]2(C)[C@@H]3CC=C4[C@@H](C=C(O)C(=O)C4(C)C)[C@]3(C)C(=O)C[C@@]12C . Is its z-score below 0.6?
Result: yes (1)

Task: A record lists NC1CC1c1ccccc1 (centres undefined) . Is its z-score below 0.6?
Result: no (0)

Task: A record lists CN(C)NC(=O)CCC(=O)O . Is its z-score below 0.6?
Result: no (0)

----------
# TARGET_UNDER_TEST: Thyroid hormone receptor beta (Homo sapiens)
# TEST_DESCRIPTION: qHTS assay for small molecule antagonists of thyroid hormone receptor beta signaling (AID 588547);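 note: cells stimulated with 0.4 nM T3 agonist during compound exposure; series mostly up to about 77 µM; % is set by controls: 0 for no effect and ±100 for the full control effect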
# TEST_CONTEXT: TR-UAS-bla HEK293, beta-lactamase ratio, antagonist mode, 18 h
Results filed as inconclusive are left out.
Recorded activity change % (negative = inhibition) values for a group of compounds are listed next.
Report only the number, with the unit % understood.

// worked examples, activity change % (negative = inhibition) included
COMPOUND | TARGET_UNDER_TEST | RECORDED_NUMBER
CCO/N=C(\CC)C1=C(O)CC(c2c(C)cc(C)cc2C)CC1=O (configuration not stated) | Thyroid hormone receptor beta (Homo sapiens) | 5.1
CC(C)(C)C(O)C(Oc1ccc(Cl)cc1)n1cncn1 (configuration not stated) | Thyroid hormone receptor beta (Homo sapiens) | -8.05
CCCCOC(=O)c1ccccc1C(=O)OCc1ccccc1 | Thyroid hormone receptor beta (Homo sapiens) | 11.3
O=[N+]([O-])c1c(Cl)c(Cl)cc(Cl)c1Cl | Thyroid hormone receptor beta (Homo sapiens) | -0.964
OCCCBr | Thyroid hormone receptor beta (Homo sapiens) | -1.82
Cc1cc(O)ccc1Cl | Thyroid hormone receptor beta (Homo sapiens) | 1.27

# evaluate next
Task: Return reported activity change % (negative = inhibition). Input compound: O=[N+]([O-])c1cc([N+](=O)[O-])c2ccccc2c1
Result: -11.2
